Tested on: Enterococcus faecalis
test.summary: Antibacterial activity against vancomycin-resistant Enterococcus faecalis
Format: functional
MIC by entry:
Express your answer in µg/mL, writing the number without its unit.

INSERT INTO measurements (compound, reported_result) VALUES
  ('O=C1O/C(=C\c2ccco2)C(c2ccco2)=C1C(=O)c1cc(Br)c(O)c(Br)c1', 64),
  ('O=C1O/C(=C\c2ccc(O)c(Br)c2)C(c2ccc(O)c(Br)c2)=C1C(=O)c1ccc(O)c(Br)c1', 32),
  ('O=C1O/C(=C\c2cc(Br)c(O)c(Br)c2)C(c2ccco2)=C1C(=O)c1cc(Br)c(O)c(Br)c1', 64),
  ('O=C1O/C(=C\c2ccc(O)c(Br)c2)C(c2cc(Br)c(O)c(Br)c2)=C1C(=O)c1cc(Br)c(O)c(Br)c1 [CADIOLIDE D]', 64),
  ('CCCN1C(=O)C(C(=O)c2ccco2)=C(c2ccc(O)c(Br)c2)C1=Cc1ccc(O)c(Br)c1 (mixture of isomers)', 16);

Quick one: MIC for `O=C1O/C(=C\c2cccs2)C(c2ccc(O)c(Br)c2)=C1C(=O)c1cc(Br)c(O)c(Br)c1` ?
32
